Experiment: NFAT Signaling Pathway (AID 444);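 note: carbachol stimulus at about its EC50 of 1 µM final; % is set by controls: 0 for no effect and ±100 for the full control effect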
Details: Jurkat NFAT-bla M1, carbachol, beta-lactamase ratio, 5 h; at 7.69 µM (top of the series) unless noted
Records with an inconclusive call do not appear.
endpoint.label: activity change, negative = inhibition (%)

>>> reported_value("O=S(=O)(O)c1cc(N=[N+]([O-])c2cc(S(=O)(=O)O)c3ccccc3c2)cc2ccccc12")
8.26
>>> reported_value("CCC(C)(C)c1ccc(Oc2cccc(C(=O)O)c2)cc1")
-3.61
>>> reported_value("Cc1cc2cc3c(=O)[nH]c(=O)[nH]c3nc2cc1C")
11.7
>>> reported_value("Cc1ccc(S(=O)(=O)Oc2cc(N)c3c(n2)CCC3)cc1")
9.71
>>> reported_value("C[C@@H](N1CCOCC1)[C@@](O)(c1ccccc1)c1ccccn1")
12.6
>>> reported_value("COc1ccc2c(c1)Cc1cc(N=[N+]([O-])c3ccc4c(c3)Cc3cc(OC)ccc3-4)ccc1-2")
-17.3
>>> reported_value("Cc1ccc(CN2CCN(Cc3ccc(C)o3)[C@@H](C)C2)o1")
-7.45
>>> reported_value("Cc1cc(C)c2c(SCc3ccc(Cl)cc3Cl)nc(N)nc2n1")
-14.4
>>> reported_value("CCOC(=O)C1=C(C)NC(=O)N[C@@H]1c1coc2cc(C)cc(C)c2c1=O")
17.5
>>> reported_value("O=C(Nc1cccc(Cl)c1)Nn1cnnc1")
-6.38
>>> reported_value("O=C(O)c1ccc(C(=O)Nc2cccc3ccccc23)c(C(=O)O)c1")
5.96

---

Assay: MultiTox-Fluor Cytotoxicity Assay - LYMP1-001 - Dead Cells (AID 946);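 note: cells exposed to compound for 16 h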; note: potency is the fitted concentration of half-maximal effect
Conditions: LYMP1-001 lymphoblastoid cells, dead-cell protease fluorescence; series mostly up to 92.2 µM
Inconclusive results are not listed. The source made the active and inactive calls. Calls follow the shape of the dose curve; as a rule, active = well fitted cell-killing curve with a large enough effect; inconclusive = small, poorly fitted or top-dose-only effect, or effect the other way; inactive = flat fitted curve, though single readings scatter.
endpoint.label: Potency

>>> reported_value("C/C=C1/C(=O)C[C@H]2[C@@H]3CCC4=CC(=O)CC[C@]4(C)[C@H]3CC[C@]12C")
"39.8 µM (active)"
>>> reported_value("CN(C)c1ccc(Cc2ccc(N(C)C)cc2)cc1")
"inactive"
>>> reported_value("CCCCC(CC)COCCCN (centres undefined)")
"inactive"
>>> reported_value("OCC(CO)(CBr)CBr")
"inactive"
>>> reported_value("Cc1ccc2ccc3cccc4ccc1c2c34")
"inactive"
>>> reported_value("Nc1ccc2c(c1)C(=O)c1ccccc1C2=O")
"inactive"
>>> reported_value("C/C(Cl)=C/CCl")
"inactive"
>>> reported_value("O=C(O)c1cc(N=Nc2ccc([N+](=O)[O-])cc2)ccc1O")
"inactive"
>>> reported_value("CCCCCCCCC1CO1 (centres undefined)")
"inactive"
>>> reported_value("CCc1ccc(C(c2ccc(CC)cc2)C(Cl)Cl)cc1")
"inactive"
>>> reported_value("Nc1ccc(N=Nc2ccccc2)c(N)c1")
"inactive"
>>> reported_value("C=C(C#N)C(=O)OCC")
"inactive"
>>> reported_value("c1ccc(COCc2ccccc2)cc1")
"inactive"
>>> reported_value("CC(/C=C/C=C(C)/C=C/C(=O)O)=C\\C=C\\C=C(C)\\C=C\\C=C(C)\\C=C\\C(=O)O")
"inactive"

---

Assay: Cell Viability - LYMP2-010 (AID 981);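 note: cells exposed to compound for 24 hours at 37 °C; nearly all actives have a fitted effect of over 55% in size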
Conditions: LYMP2-010 lymphoblastoid cell viability, qHTS; series mostly up to 92.2 µM
Records with an inconclusive call do not appear. Active and inactive are the calls of the source. The call rests on the fitted dose curve; in most records, active means well fitted cell-killing curve with a large enough effect; inconclusive means small, poorly fitted or top-dose-only effect; inactive means flat fitted curve, though single readings scatter.
Possible outcomes: active, inactive

>>> label("Oc1cc2c(cc1O)[C@H]1c3ccc(O)c(O)c3OC[C@@]1(O)C2")
"active"
>>> label("CC(CCC(=O)O)(c1ccc(O)cc1)c1ccc(O)cc1")
"inactive"
>>> label("C/C(Cl)=C/CCl")
"inactive"
>>> label("C/C=C1/C(=O)C[C@H]2[C@@H]3CCC4=CC(=O)CC[C@]4(C)[C@H]3CC[C@]12C")
"active"
>>> label("C=C1CC[C@H](O)C/C1=C/C=C1\\CCC[C@]2(C)[C@@H]([C@H](C)CCCC(C)C)CC[C@@H]12")
"active"
>>> label("CC(/C=C/C=C(C)/C=C/C(=O)O)=C\\C=C\\C=C(C)\\C=C\\C=C(C)\\C=C\\C(=O)O")
"inactive"
